biological target: Peroxisome proliferator-activated receptor gamma (Homo sapiens, UniProt P37231); assay: Partial agonist activity at PPARgamma (unknown origin) by TR-FRET-based competitive binding assay
pKi: −log10 of the molar value.

[
  {
    "mol smiles": "CCCc1nc2c(C)cc(-c3nc4ccccc4n3C)cc2n1Cc1ccc(-c2ccccc2C(=O)O)cc1",
    "pKi": 5.97
  }
]

====

Target: Peroxisome proliferator-activated receptor gamma (Homo sapiens, UniProt P37231)
Sequence (P37231 whole entry): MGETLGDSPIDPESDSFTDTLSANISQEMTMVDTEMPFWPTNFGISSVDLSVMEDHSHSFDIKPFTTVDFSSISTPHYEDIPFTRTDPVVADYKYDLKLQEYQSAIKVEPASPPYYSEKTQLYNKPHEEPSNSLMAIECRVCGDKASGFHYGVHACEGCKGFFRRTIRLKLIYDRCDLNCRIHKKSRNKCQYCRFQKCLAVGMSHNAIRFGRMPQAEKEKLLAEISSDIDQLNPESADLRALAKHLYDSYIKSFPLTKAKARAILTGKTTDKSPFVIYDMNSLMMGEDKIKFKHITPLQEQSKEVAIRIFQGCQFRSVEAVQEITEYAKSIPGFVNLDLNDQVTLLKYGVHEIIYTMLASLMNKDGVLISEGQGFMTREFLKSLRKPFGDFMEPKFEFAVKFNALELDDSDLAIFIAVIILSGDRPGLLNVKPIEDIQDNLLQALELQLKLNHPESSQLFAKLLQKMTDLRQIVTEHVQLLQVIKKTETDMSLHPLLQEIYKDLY
Assay: Agonist activity at PPARgamma LBD (unknown origin) assessed as increase in recruitment of coactivator RAP250 to PPARgamma LBD by TR-FRET-based nuclear receptor coactivator assay
pEC50: −log10 of the molar value.

[
  {
    "mol smiles": "CC(C)=CCOc1cc(OCc2ccccc2)c2c(=O)cc(-c3ccccc3)oc2c1",
    "assayed target": "Peroxisome proliferator-activated receptor gamma (Homo sapiens, UniProt P37231)",
    "pEC50": 4.71
  }
]

====

Molecular target: Peroxisome proliferator-activated receptor delta (Homo sapiens) (UniProt Q03181)
Sequence (whole entry): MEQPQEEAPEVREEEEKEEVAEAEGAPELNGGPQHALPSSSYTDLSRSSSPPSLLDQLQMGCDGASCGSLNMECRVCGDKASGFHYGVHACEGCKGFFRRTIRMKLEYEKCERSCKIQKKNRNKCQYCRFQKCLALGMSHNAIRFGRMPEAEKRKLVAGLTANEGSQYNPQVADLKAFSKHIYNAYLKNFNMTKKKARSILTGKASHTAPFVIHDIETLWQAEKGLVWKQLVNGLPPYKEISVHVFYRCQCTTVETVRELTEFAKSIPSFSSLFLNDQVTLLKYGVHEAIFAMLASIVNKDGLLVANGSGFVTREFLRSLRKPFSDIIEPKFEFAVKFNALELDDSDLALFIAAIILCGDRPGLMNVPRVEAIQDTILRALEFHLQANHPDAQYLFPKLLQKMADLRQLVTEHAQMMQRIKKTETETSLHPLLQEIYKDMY
Assay: Binding affinity to PPARdelta (unknown origin) upto 10 uM by TR-FRET-based competitive binding assay
Activity calls are given as the source filed them. The rule behind the calls is not given here.

[
  {
    "mol smiles": "CC(C)=CCOc1cc(OCc2ccccc2)cc2oc(-c3ccccc3)cc(=O)c12",
    "Activity": "inactive"
  },
  {
    "mol smiles": "O=c1cc(-c2ccccc2)oc2cc(OCc3ccccc3)cc(OCc3ccccc3)c12",
    "Activity": "inactive"
  },
  {
    "mol smiles": "C=CCOc1cc(O)cc2oc(-c3ccccc3)cc(=O)c12",
    "Activity": "inactive"
  },
  {
    "mol smiles": "O=c1cc(-c2ccccc2)oc2cc(O)cc(OCc3ccc(Cl)cc3)c12",
    "Activity": "inactive"
  },
  {
    "mol smiles": "O=c1cc(-c2ccccc2)oc2cc(O)cc(OCc3ccccc3)c12",
    "Activity": "inactive"
  },
  {
    "mol smiles": "COc1cc(OCc2ccccc2)cc2oc(-c3ccccc3)cc(=O)c12",
    "Activity": "inactive"
  },
  {
    "mol smiles": "O=c1cc(-c2ccccc2)oc2cc(O)cc(O)c12",
    "Activity": "inactive"
  },
  {
    "mol smiles": "O=c1cc(-c2ccccc2)oc2cc(OCc3ccccc3)cc(O)c12",
    "Activity": "inactive"
  },
  {
    "mol smiles": "CC(C)=CCOc1cc(OCc2ccccc2)c2c(=O)cc(-c3ccccc3)oc2c1",
    "Activity": "inactive"
  },
  {
    "mol smiles": "CC(C)=CCOc1cc(OCC=C(C)C)c2c(=O)cc(-c3ccccc3)oc2c1",
    "Activity": "inactive"
  },
  {
    "mol smiles": "O=c1cc(-c2ccccc2)oc2cc(O)cc(OCc3ccc(F)cc3)c12",
    "Activity": "inactive"
  }
]
